PROTOCOL DESCRIPTION: Determination of apparent solubility (saturation solubility by HPLC) in diluents of different pH
Type: physicochemical
CONDITIONS USED: pH 6.8 diluent (phosphate buffer), 37 °C, pH 6.8, aqueous buffer, thermodynamic from solid, pH 6.8 diluent, shaken 12 hours, average of 3
MEASURE NAME: solubility at 12 h
Provide the measurement as a number trailed by its unit.

Data request, read-out solubility at 12 h, for CC[C@H](Nc1ncnc2[nH]cnc12)c1nc2cccc(F)c2c(=O)n1-c1ccccc1
75.3 µg/mL

###

PROTOCOL DESCRIPTION: Determination of apparent solubility (saturation solubility by HPLC) in diluents of different pH
Assay type: physicochemical
CONDITIONS USED: pH 7.4 diluent (phosphate buffer), 37 °C, pH 7.4, aqueous buffer, thermodynamic from solid, pH 7.4 diluent, shaken 12 hours, average of 3
MEASURE NAME: solubility at 12 h
Provide the measurement as a number trailed by its unit.

Data request, read-out solubility at 12 h, for CC[C@H](Nc1ncnc2[nH]cnc12)c1nc2cccc(F)c2c(=O)n1-c1ccccc1
74.3 µg/mL
